- Experiment notes: absorption study, plasma levels in rats
- Format: in vivo
- Measurement setup: male, Sprague Dawley, rat, 10 mg/kg
Quantity: half-life

Prompt line: Fill in the blank: the reported half-life of COc1c(OCC2CCCC2)cc2c(c1C=O)CC(O)OC2=O (stereo not shown) is ____.
Response line: ~50 min

---

- Experiment notes: absorption study, plasma levels in rats
- Assay type: in vivo
- Measurement setup: male, Sprague Dawley, rat, iv, 10 mg/kg
Quantity: concentration at 30 min (ng/g)
Provide the reading as a plain figure in ng/g.

Prompt line: Fill in the blank: the reported concentration at 30 min of COc1c(OCC2CCCC2)cc2c(c1C=O)CC(O)OC2=O (stereo not shown) is ____.
Response line: 92.6

---

- Target of assay: recombinant human PTPRD phosphatase (Homo sapiens, UniProt P23468)
- Sequence (P23468 1357-1612 limits assumed): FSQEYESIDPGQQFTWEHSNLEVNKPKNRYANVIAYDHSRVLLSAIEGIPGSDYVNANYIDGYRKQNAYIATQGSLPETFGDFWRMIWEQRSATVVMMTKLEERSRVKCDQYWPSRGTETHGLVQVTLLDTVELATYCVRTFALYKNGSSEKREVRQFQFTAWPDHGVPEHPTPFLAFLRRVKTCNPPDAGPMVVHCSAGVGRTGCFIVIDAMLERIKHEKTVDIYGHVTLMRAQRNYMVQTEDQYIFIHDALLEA
- Experiment notes: inhibition of pNPP hydrolysis by recombinant PTPRD phosphatase
Quantity: activity at PTPRD (in words)

Prompt line: Fill in the blank: the reported activity at PTPRD (in words) of CCCCOc1cc2c(c(C=O)c1OCC)CC(O)OC2=O (centres unmarked) [compound 23] is ____.
Response line: activity was lost

Prompt line: Fill in the blank: the reported activity at PTPRD (in words) of CCCCOc1cc2c(=O)occc2c(C=O)c1OC [compound 22] is ____.
Response line: activity was lost

Prompt line: Fill in the blank: the reported activity at PTPRD (in words) of CCCCOc1cc2c(c(C=O)c1OCCCC)CC(O)OC2=O (centres unmarked) [compound 24] is ____.
Response line: activity was lost

---

- Experiment notes: absorption study, plasma levels in rats
- Format: in vivo
- Measurement setup: male, Sprague Dawley, rat, po, 10 mg/kg
Quantity: concentration at 30 min

Prompt line: Fill in the blank: the reported concentration at 30 min of COc1c(OCC2CCCC2)cc2c(c1C=O)CC(O)OC2=O (stereo not shown) is ____.
Response line: 82.4 ng/g

---

- Experiment notes: absorption study, plasma levels in rats
- Assay type: in vivo
- Measurement setup: male, Sprague Dawley, rat, iv, 10 mg/kg
Quantity: concentration at 5 min (ng/g)
Provide the reading as a plain figure in ng/g.

Prompt line: Fill in the blank: the reported concentration at 5 min of COc1c(OCC2CCCC2)cc2c(c1C=O)CC(O)OC2=O (stereo not shown) is ____.
Response line: 24600

---

- Experiment notes: absorption study, plasma levels in rats
- Assay type: in vivo
- Measurement setup: male, Sprague Dawley, rat, ip, 10 mg/kg
Quantity: concentration at 120 min (ng/g)
Provide the reading as a plain figure in ng/g.

Prompt line: Fill in the blank: the reported concentration at 120 min of COc1c(OCC2CCCC2)cc2c(c1C=O)CC(O)OC2=O (stereo not shown) is ____.
Response line: 10.3
